Biological target: JAK3 enzyme (Homo sapiens, UniProt P52333)
Sequence (P52333 whole entry, species assumed): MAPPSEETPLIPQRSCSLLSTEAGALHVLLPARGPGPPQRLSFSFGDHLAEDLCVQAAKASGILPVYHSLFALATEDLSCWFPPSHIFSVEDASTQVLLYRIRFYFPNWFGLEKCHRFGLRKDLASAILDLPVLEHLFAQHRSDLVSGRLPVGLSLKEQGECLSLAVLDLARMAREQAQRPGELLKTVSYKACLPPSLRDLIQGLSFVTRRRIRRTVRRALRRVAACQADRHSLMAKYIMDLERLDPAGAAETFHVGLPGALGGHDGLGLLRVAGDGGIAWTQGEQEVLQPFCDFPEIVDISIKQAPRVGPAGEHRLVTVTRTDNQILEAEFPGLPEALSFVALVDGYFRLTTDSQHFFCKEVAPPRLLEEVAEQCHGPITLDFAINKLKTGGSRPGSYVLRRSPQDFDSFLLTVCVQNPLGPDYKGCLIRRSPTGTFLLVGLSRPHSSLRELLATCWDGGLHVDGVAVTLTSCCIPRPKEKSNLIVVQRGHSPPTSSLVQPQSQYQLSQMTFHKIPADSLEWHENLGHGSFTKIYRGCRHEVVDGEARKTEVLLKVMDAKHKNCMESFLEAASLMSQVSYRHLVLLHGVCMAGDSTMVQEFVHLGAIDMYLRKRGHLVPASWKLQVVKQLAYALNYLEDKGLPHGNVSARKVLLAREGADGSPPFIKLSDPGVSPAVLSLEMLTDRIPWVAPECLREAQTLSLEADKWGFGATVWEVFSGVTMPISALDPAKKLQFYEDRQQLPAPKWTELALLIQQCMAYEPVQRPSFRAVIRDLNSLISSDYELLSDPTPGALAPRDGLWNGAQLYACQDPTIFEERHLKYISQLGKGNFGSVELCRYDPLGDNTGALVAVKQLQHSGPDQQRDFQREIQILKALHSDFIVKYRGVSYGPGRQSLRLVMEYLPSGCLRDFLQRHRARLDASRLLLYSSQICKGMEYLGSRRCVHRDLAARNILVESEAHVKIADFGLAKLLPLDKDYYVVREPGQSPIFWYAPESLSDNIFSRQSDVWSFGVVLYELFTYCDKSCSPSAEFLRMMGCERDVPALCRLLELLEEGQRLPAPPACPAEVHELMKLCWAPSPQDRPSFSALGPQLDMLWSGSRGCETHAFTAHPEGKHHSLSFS
Assay: JAK Caliper Enzyme Assay at 4 μM ATP
Type: biochemical
pIC50: −log10 of the molar value.
experimental endpoint: pIC50

Please review the entries below; each comes with its answer.
* C=CC(=O)N1CCN(c2cnc3[nH]cc(C(=O)NCC(C)(C)C)c3n2)CC1(C)C | 8.39
* C=CC(=O)N1C[C@H](Nc2cnc3[nH]cc(C(=O)NCCOC)c3n2)[C@](C)(C#N)C1 | 8.75
* C=CC(=O)N1CCC(Oc2cnc3[nH]cc(C(=O)N[C@@H](C)CC)c3n2)CC1 | 9.86
* C=CC(=O)N1C[C@@H](CF)C[C@@H](Nc2ncnc3[nH]ccc23)C1 (single isomer, unassigned) | 9.37

1. C=CC(=O)N1C[C@H](C)[C@H](Nc2cnc3[nH]cc(C(=O)NCC)c3n2)C1 (stereo in doubt)
2. C=CC(=O)N1CCN(c2cnc3[nH]cc(C(=O)N[C@@H]4C[C@H]4C(F)(F)F)c3n2)CC1(C)C
3. C=CC(=O)N1CCC(Nc2cnc3[nH]cc(C(=O)NCCCC(F)(F)F)c3n2)C1 (stereo in doubt)
Q: Provide the items ranked by increasing pIC50. Answer format: the labels, in the requested order.
Result: 2, 1, 3
(2: 7.68, 1: 8.67, 3: 9.60)

---

Target: JAK3 enzyme (Homo sapiens, UniProt P52333)
Experiment: JAK Caliper Enzyme Assay at 1 mM ATP
Type: biochemical
experimental endpoint: IC50 (nM)

- C=CC(=O)N1CCC(Oc2cnc3[nH]cc(C(=O)NCC4CC(F)(F)C4)c3n2)CC1 [Example 197]: 147

P. C=CC(=O)N1CC[C@H](CNc2cnc3[nH]cc(C(=O)N[C@H](C)COC)c3n2)C1 (single isomer, unassigned) [Example 21]
Q. C=CC(=O)N1CC[C@H](Nc2cnc3[nH]cc(C(=O)NCCC(F)(F)F)c3n2)C1 [Example 235]
R. C=CC(=O)N1CCC(Oc2cnc3[nH]cc(C(=O)N[C@@H](C)CC)c3n2)CC1 [Example 205]
S. C=CC(=O)N1C[C@H](Nc2cnc3[nH]cc(C(=O)NCCOC)c3n2)C[C@@H]1COC [Example 246]
Q: Order the records so the highest IC50 appears first and the lowest last. Answer format: the labels, in the requested order.
Result: S, P, Q, R

I. C=CC(=O)N1C[C@H](Nc2cnc3[nH]cc(C(=O)NCCOC)c3n2)C[C@H]1COCC [Example 233]
II. C=CC(=O)N1C[C@@H](O)C[C@@H](Nc2ncnc3[nH]cc(C#N)c23)C1 [Example 113]
Q: Lower value for measured IC50? Options: I , II State the label of the item chosen.
Result: II
(II: 589 nM, I: 1100 nM)

A. C=CC(=O)N1CC[C@H](Nc2cnc3[nH]cc(C(=O)NCC)c3n2)[C@H](OC)C1 [Example 326]
B. C=CC(=O)N1CC[C@H](COc2cnc3[nH]cc(C(=O)N[C@H](C)COC)c3n2)C1 (single isomer, unassigned) [Example 15]
C. C=CC(=O)N1CCN(c2cnc3[nH]cc(C(=O)N[C@H](CO)[C@@H](C)CC)c3n2)CC1(C)C [Example 145]
D. C=CC(=O)N1CCC(N(C)c2cnc3[nH]cc(C(=O)NCC)c3n2)CC1 [Example 60]
E. C=CC(=O)N1CCC(Oc2cnc3[nH]cc(C(=O)NCC4(O)CCC(F)(F)CC4)c3n2)CC1 [Example 207]
Q: Provide the items ranked by increasing IC50. Answer format: the labels, in the requested order.
Result: A, D, E, C, B

1. C=CC(=O)N1CCC(Oc2cnc3[nH]cc(C(=O)N[C@@H]4CCC[C@H]4F)c3n2)CC1 [Example 229]
2. C=CC(=O)N1CC[C@@H](Nc2cnc3[nH]cc(C(=O)NCC4(O)CCC(F)(F)CC4)c3n2)[C@@H](OC)C1 [Example 268]
Q: Between the two listed entries 1 and 2 , which has its IC50 at the higher number? State the label of the item chosen.
Result: 2
(2: 330 nM, 1: 60 nM)
